Experiment: BET inhibitor-based combinations targeting novel dependencies in MECOM-rearranged (r) AML: HNT-34 cell line (AID 2202234); note: nearly all actives have a fitted effect of over 35% in size
Settings: HNT-34 AML viability, CellTiter-Glo luminescence, 48 h; series mostly up to 46 µM
Inconclusive results are not listed. Active and inactive are the calls of the source. Calls come from the whole dose curve; as a rule, active = well fitted inhibition curve with a large enough effect; inconclusive = small, poorly fitted or top-dose-only effect; inactive = no such curve, though single readings can be large or run the other way.
// classify into active, inactive

INSERT INTO assay_data (compound_structure_string, label_value) VALUES
  ('CC/C(=C(/c1ccc(O)cc1)c1ccc(OCCNC)cc1)c1ccccc1', 'active'),
  ('O=C(O)C1=CO[C@@H](O[C@@H]2O[C@H](CO)[C@@H](O)[C@H](O)[C@H]2O)[C@@H]2C(CO)=CC[C@H]12', 'inactive'),
  ('C[C@H](Nc1nc(N[C@H](C)C(F)(F)F)nc(-c2cccc(Cl)n2)n1)C(F)(F)F', 'inactive'),
  ('CC(C)Oc1ccc(-c2nn([C@@H](C)c3oc4ccc(F)cc4c(=O)c3-c3cccc(F)c3)c3ncnc(N)c23)cc1F', 'active'),
  ('CNC(=O)[C@@H](NC(=O)[C@H](CC(C)C)[C@H](O)C(=O)NO)C(C)(C)C', 'active');

# input For `O=C(NCc1ccc(S(=O)(=O)c2cccc(C(F)(F)F)c2)cc1)c1cnc2[nH]ncc2c1` , what call appears in the results of this test?
# output active

# input For `O=c1sn(-c2cccc3ccccc23)c(=O)n1Cc1ccccc1` , what call appears in the results of this test?
# output inactive

# input For `CCC[C@H](NC(=O)/C(C#N)=C/c1cccc(Br)n1)c1ccccc1` , what call appears in the results of this test?
# output active

# input For `COc1ccc(Cl)cc1-c1cc(=O)[nH]c(=S)n1CC(N)=O` , what call appears in the results of this test?
# output inactive
